ASSAY_EXPLANATION: Binding affinity to TrkA G667S mutant (unknown origin) assessed as inhibition constant by radiometric assay
Parameters: species or system Homo sapiens
METRIC: pKi
Kindly note that pKi refers to -log10 of the concentration in mol/L and answer with the value alone.

Req: Consider the compound Cc1cc(NC(=O)Nc2cc(C(C)(C)C)nn2-c2ccc(Cl)cc2)ccc1Nc1ncnc2c1OC(C)(C)C(=O)N2 and give its recorded pKi.
Resp: 8.70

====

SYSTEM_NAME: Epithelial discoidin domain-containing receptor 1 (Homo sapiens)
Sequence (Q08345 whole entry, the tested form may be a part): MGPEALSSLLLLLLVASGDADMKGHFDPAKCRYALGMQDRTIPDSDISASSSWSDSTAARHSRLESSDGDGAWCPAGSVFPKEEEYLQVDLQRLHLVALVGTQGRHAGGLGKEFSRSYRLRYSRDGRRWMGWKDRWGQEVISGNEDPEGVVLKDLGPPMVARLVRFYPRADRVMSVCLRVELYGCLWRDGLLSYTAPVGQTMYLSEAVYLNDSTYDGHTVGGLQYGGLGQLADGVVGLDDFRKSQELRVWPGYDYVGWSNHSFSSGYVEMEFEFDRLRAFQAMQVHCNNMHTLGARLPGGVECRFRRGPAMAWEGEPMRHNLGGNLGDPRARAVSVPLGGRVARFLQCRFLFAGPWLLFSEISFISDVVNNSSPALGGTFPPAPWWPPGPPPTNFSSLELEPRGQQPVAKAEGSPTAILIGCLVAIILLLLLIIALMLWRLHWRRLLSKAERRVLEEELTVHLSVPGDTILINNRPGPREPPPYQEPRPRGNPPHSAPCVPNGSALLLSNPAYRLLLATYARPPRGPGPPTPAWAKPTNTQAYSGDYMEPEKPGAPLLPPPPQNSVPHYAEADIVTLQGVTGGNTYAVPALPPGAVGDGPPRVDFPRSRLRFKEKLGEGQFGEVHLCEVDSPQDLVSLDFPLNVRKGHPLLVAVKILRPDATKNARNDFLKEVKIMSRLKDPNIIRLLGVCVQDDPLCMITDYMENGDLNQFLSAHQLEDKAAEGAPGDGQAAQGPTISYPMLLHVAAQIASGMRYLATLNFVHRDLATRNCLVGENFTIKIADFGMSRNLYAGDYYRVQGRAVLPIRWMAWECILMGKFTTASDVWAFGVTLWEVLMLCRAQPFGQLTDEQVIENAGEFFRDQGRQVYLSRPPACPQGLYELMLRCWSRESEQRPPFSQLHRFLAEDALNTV
ASSAY_EXPLANATION: Inhibition of human DDR1 in presence of ATP by radiometric assay
METRIC: pIC50
Kindly note that pIC50 refers to -log10 of the concentration in mol/L and answer with the value alone.

Req: Supply pIC50 measured with Epithelial discoidin domain-containing receptor 1 (Homo sapiens) for Cc1cc(NC(=O)Nc2cc(C(C)(C)C)nn2-c2ccc(Cl)cc2)ccc1Nc1ncnc2c1OC(C)(C)C(=O)N2 .
Resp: 6.90
